# system: FGFR3 (Ba/F3-TEL-FGFR3 cells) (Homo sapiens)
# Construct: the other entry of the earlier key: ETV6 (P41212, Transcription factor ETV6)
# Sequence (P22607 472-761 limits assumed): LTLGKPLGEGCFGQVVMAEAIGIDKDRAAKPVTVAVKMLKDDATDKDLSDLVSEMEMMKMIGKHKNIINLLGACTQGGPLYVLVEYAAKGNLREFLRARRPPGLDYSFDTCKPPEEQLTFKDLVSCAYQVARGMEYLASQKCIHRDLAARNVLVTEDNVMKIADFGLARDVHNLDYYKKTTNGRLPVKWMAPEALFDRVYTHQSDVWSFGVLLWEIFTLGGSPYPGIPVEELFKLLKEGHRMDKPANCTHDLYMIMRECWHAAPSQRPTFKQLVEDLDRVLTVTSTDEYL
# protocolNotes: FGFR3 cellular assay (Ba/F3-TEL-FGFR3 proliferation)
endpointLabel: IC50 (nM)
Answers are plain numbers, in nM.

What value of IC50 has been reported for the following compound? CCN1CCN(Cc2ccc(NC(=O)c3cc(Nc4nccn4-c4ncnc5[nH]ccc45)cc(OC)c3)cc2C(F)(F)F)CC1
40
